The measured values listed here are drawn from the supplement of paper PMC10065799.

- Target Desc: Fes (UniProt P07332)
- Sequence (P07332 whole entry, looked up): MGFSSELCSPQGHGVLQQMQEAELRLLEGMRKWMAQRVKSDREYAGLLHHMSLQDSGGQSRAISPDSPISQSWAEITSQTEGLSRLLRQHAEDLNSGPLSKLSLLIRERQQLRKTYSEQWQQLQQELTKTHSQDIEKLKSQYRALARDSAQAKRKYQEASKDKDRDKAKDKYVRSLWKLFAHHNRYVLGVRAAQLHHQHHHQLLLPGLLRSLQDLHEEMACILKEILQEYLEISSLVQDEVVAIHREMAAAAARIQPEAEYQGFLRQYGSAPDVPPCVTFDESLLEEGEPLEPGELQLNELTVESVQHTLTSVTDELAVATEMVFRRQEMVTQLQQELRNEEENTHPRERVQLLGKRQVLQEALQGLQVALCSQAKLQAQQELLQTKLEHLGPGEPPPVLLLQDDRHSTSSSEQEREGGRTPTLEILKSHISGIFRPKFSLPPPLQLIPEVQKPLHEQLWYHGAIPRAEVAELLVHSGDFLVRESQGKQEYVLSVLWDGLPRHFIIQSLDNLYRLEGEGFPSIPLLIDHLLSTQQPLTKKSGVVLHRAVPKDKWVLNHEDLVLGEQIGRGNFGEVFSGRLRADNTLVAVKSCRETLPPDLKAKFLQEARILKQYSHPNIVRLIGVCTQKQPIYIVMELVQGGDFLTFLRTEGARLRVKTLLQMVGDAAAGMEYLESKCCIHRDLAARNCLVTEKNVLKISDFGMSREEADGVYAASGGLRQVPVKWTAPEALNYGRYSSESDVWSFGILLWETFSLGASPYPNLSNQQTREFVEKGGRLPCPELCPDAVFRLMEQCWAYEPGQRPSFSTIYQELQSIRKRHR
- Procedure Text: phosphorylation enrichment, bacterial display (enrichment ratio); higher = better substrate or ligand; peptides without Tyr show the background;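 also: 11-residue human phosphosite peptides and single-mutation variants displayed on the E. coli surface, counted by deep sequencing, each peptide's frequency after selection divided by its frequency in the unselected input library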;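 also: frequency after pTyr selection over input frequency; kinase dosed for 20-30% of maximal phosphorylation in three min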
# cutoff 1 applies to phosphorylation enrichment; >= gives yes, < gives no

1. FGFPGYQSKHF [TIMP3_Y177_YF] | no
2. KMKGDYFRSLA [YWHAG_Y130_Y133S_YF] | no
3. DRFANYIEKVR [DES_Y122] | no
4. DFTSRYLSASD [PKHD1_Y828_N830S] | no
5. KVALVYGQMNQ [ATP5F1B_Y269_E274Q] | yes
6. DPGVSYRTREE [PDHA1_Y301] | no
7. FLAVGYHKPRI [IDS_Y225_H229R] | no
8. WKEIEYEVVRD [CPS1_Y634] | yes
9. CYVYYYSYLLK [PTEN_Y178_R173C] | yes
10. AHLLQYNHQVK [LGALS3_Y221_R224Q] | no
11. TLNTNYHLPPS [MT-ATP8_Y33_M28T] | no
12. ETRWKYHFEVV [GCNT3_Y267] | yes
13. WQQQSYLDSVI [CTNNB1_Y30_G34V] | yes
14. SSQTIYQRVEG [TFR2_Y23_V22I] | no
15. IHFAIYFLKFS [ARMC9_Y107_L108F_YF] | no
16. TYQYKYPEGSS [TGM4_Y440_E437Q] | no
17. MEVEQYIFVKC [CYBB_Y324_G322E] | yes
18. ANKNVYEVEPT [MEGF10_Y1075_R1072K] | no
19. IIWDSYTTNKV [GNB1_Y85] | yes
20. CSPLLYKVIMS [OR8D4_Y132_R133K] | yes
21. YQGGTYSKACT [FGG_Y380_S384C] | no
22. SVVVRYEPPEV [TP53_Y220_P219R] | no
23. LSRDVYEEDSF [RET_Y900_YF] | yes
24. PIGRKYKKVRF [F8_Y442_R437P] | no
25. RNVYYYSYLLK [PTEN_Y178_Y174N] | yes
26. YETDYYRKGGK [INSR_Y1190] | no
27. YGMSTYITRED [FNDC3B_Y180] | yes
28. LAVPLYKNGVK [CPS1_Y1069] | no
29. GESLTYVSTTF [C1orf162_Y120_A121V] | yes
30. DKATEYSQFMR [MAX_Y70_I71S_YF] | no
31. KKHIPYSEHKS [CSNK1G2_Y206_R207S] | yes
32. DKANRYFSPNV [PTEN_Y336_F341V] | no
33. EARRVYGDIIY [ALDH5A1_Y175_H180Y] | no
34. SLNEEYAKNKT [MSH2_Y563_T564A] | no
35. TNLVPYPCIHF [TUBA1A_Y262_R264C] | no
36. KFFRVYQGQQP [MUTYH_Y494_V490F] | no
37. DAHFTYSRFPW [LY75_Y888_D884A_YF] | yes
38. SWDKRYCEAGF [ITGA2B_Y197] | yes
39. GCVRMYELVHR [GLE1_Y135] | yes
40. RHIEKYVDQGK [IRAK3_Y61] | no
41. SFCFRYRCAAQ [SUMF1_Y344_R349Q_YF] | no
42. LGPSDYFGETA [PRKAR1A_Y323_I327T] | no
43. VATRWYRSLEL [CDKL5_Y177_P180L] | no
44. GMIQAYSSSQR [DES_Y5_S2I] | no
45. AALSAYAAQRP [PTPRN2_Y249] | no
46. VFLARYGPAWR [CYP2D6_Y124] | yes
47. CLSHCYFSQIR [MCM3AP_Y873_L870S] | no
48. EFISEYCGEII [EZH2_Y641] | yes
49. IDPFIYTPFGS [CYP3A4_Y432_YF] | yes
50. YSNKLHYQLEQ [PDPR_Y109_Y109H] | no
51. GEDEPYSEPFA [APBA1_Y183_YF] | yes
52. ATHSGYRLNDF [CLDN14_Y233_YF] | no

###

- Target Desc: Fyn (UniProt P06241)
- Sequence (P06241 whole entry, looked up): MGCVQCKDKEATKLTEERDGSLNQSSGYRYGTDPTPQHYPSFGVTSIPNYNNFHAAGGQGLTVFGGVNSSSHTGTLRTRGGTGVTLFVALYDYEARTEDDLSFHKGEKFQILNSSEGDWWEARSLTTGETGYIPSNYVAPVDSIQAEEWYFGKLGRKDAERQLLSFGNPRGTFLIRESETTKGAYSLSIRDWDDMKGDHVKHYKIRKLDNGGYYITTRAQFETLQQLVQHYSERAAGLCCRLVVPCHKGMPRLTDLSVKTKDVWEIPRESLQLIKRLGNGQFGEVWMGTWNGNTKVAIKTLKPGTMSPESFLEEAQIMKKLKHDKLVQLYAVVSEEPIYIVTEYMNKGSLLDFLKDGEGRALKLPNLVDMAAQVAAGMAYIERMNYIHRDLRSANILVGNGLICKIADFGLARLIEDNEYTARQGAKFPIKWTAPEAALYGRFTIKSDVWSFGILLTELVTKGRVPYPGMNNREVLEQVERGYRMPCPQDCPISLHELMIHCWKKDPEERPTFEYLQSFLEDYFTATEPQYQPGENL
- Procedure Text: phosphorylation enrichment, bacterial display (enrichment ratio); higher = better substrate or ligand; peptides without Tyr show the background
Property Measured: phosphorylation enrichment

1) GLRCGYGVLGG [KRTAP20-2_Y15_Y13C] | 0.466
2) VKANTYEKFWL [GATM_Y100_P105L_YF] | 0.803
3) FVSAAYVKKLD [SPTAN1_Y1020_P1017S] | 0.365
4) AASTDYFKRGD [PDHA1_Y242_YF] | 0.462
5) RVDRDYVLKST [HTATIP2_Y111_A116T] | 0.65
6) ATYRGYDSDNP [MMUT_Y146_H143Y] | 0.528
7) EYRFIYMAVQH [PTPN11_Y515_Q510E] | 4.15
8) SSQTIYQRVEG [TFR2_Y23_V22I] | 0.771
9) KVALVYGQMNQ [ATP5F1B_Y269_E274Q] | 2.16
10) ANFTEYVATRW [CDKL5_Y171_YF] | 0.57
11) WTAHSYRMGST [ARHGEF7_Y785] | 0.479
12) PSGPTYRGAVP [ASAH1_Y43] | 0.602
13) SARFHYLMAEK [LDHB_Y173_R172H] | 0.564

###

Listing: phosphorylation enrichment of selected sequences
- Test system: c-Src
- Procedure Text: phosphorylation enrichment, bacterial display (enrichment ratio); higher = better substrate or ligand; peptides without Tyr show the background
Property Measured: phosphorylation enrichment

1) ETKRPYTVILI [SBDS_Y128] | 0.458
2) DSASAYADEVK [ETNPPL_Y189] | 0.638
3) ESFCLYPPVPQ [CYP4B1_Y377_R375C] | 0.477
4) IIWDSYTTNKV [GNB1_Y85] | 0.395
5) KRFAFYRDSPR [FOXE3_Y108_E103K] | 0.414
6) RLRKFHLGKFL [KLB_Y906_Y906H_YF] | 0.792
7) KINKMYSDHAM | 0.416
8) FVSAAYVKKLD [SPTAN1_Y1020_P1017S] | 0.382
9) DPEGAYTTRGG [EPHA3_Y779_A777G] | 0.536
10) EPSVDCCVVKI [CAD_Y735_Y735C] | 0.369
11) RNAAEYPLSSG [ABL1_Y139_L140P] | 0.522
12) VLNHAYENLTR [SYNE2_Y3255_D3253H] | 0.405
13) EIRTQYEAMAS [GFAP_Y242] | 0.472
14) EEEFEYMNRRR [ERBB3_Y1199_D1194E_YF] | 0.608

###

- Target Desc: EPHB1 (UniProt P54762)
- Sequence (P54762 whole entry, looked up): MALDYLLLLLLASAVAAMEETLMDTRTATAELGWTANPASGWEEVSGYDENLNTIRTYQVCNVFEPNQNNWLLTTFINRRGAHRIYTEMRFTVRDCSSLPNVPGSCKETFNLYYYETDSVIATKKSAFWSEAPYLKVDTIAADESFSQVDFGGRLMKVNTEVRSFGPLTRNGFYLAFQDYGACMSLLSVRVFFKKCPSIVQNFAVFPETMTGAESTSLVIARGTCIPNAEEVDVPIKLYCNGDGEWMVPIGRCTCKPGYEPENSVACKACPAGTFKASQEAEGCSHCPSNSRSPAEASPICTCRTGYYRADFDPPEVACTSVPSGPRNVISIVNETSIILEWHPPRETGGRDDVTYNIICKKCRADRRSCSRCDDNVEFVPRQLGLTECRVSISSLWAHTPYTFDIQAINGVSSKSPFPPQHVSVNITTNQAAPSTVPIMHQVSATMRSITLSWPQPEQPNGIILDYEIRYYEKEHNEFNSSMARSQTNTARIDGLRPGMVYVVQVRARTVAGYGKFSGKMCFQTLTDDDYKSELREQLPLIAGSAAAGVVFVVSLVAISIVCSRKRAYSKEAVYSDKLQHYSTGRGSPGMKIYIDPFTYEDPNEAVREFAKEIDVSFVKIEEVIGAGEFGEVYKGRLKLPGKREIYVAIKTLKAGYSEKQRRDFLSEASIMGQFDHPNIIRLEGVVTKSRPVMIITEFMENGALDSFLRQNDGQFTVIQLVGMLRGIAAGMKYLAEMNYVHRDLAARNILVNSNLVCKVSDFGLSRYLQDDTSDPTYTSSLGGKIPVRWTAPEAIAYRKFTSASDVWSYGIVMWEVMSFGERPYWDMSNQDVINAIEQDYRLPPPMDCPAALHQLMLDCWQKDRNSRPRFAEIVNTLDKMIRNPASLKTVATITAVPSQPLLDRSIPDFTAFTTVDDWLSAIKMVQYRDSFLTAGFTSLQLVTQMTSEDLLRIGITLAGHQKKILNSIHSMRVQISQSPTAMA
- Procedure Text: phosphorylation enrichment, bacterial display (enrichment ratio); higher = better substrate or ligand; peptides without Tyr show the background
Property Measured: phosphorylation enrichment

1. KRGIDYILRHM [FRMD1_Y225] | 0.494
2. FPMLNYKDIRK [CFAP221_Y798] | 0.292
3. FLAVGYHKPRI [IDS_Y225_H229R] | 0.477
4. NHFKICNLCAE [PTEN_Y68_Y68C_YF] | 0.461
5. CTTIHYNFMCD [TP53_Y234_N239D_YF] | 0.545
6. KVVVPYEPPEV [TP53_Y220_S215K] | 0.452
7. TFWKKYRTFWK [CCDC70_Y125] | 0.472
8. AGREIYESEKC [TTN_Y4424_D4427E] | 0.427
9. EHTTLYSNNST [KANSL1_Y223] | 0.387
10. TAPFNYSFIFK [RAB14_Y8_YF] | 2
11. AQVDTYCRHNF [HLA-DRB1_Y107_A103Q_YF] | 0.369
12. CTTIHSNFMCN [TP53_Y234_Y234S_YF] | 0.448
13. SPYAVYRFFTF [RPGRIP1_Y826] | 0.714
14. FTNELYMMMRD [FGFR1_Y730_C725Y_YF] | 3.18
15. VKANTYEKFWL [GATM_Y100_P105L_YF] | 0.562
16. GMKIVYVYVKK [DNAI2_Y5_E2K] | 0.567
17. FSPGSNERETF [NF1_Y2192_Y2192N] | 0.408
18. STLEVYSCHPP [IL21R_Y317] | 1.04
19. REGAKYVSHSA [ASS1_Y113_G117S] | 0.414
20. KGEDFYCVTYH [FHL1_Y149_C153Y] | 1.09
21. AEARMYGVLPW [PLP1_Y207_D203E] | 0.692
22. CTTIQYNYMCN [TP53_Y234_H233Q] | 0.614
23. CTTIHKNYMCN [TP53_Y234_Y234K] | 0.515
24. LRVKMYNFLRS [ADGRG7_Y760] | 1.41
25. CLSHCYFSQIR [MCM3AP_Y873_L870S] | 0.41
26. NHRNQYQALKT [CLSPN_Y887_P892T] | 0.422
27. IKGNMYYENSY [EGFR_Y112_R108K] | 0.469
28. LTERDYSFVTT [ACTG2_Y199_G198D] | 2.38
29. CRWKRYQCSHD [GDPD5_Y30_R32C] | 0.458
30. NGSKGYAYVHF [PABPC5_Y147] | 0.553
31. IGRGSYAKVLL [PRKCZ_Y263] | 0.363
32. GKTQQYDCKWY [BCR_Y751] | 0.554
33. LNECHYGALIG [BPGM_Y92_R90C] | 0.682
34. GEDEPYSEPFA [APBA1_Y183_YF] | 0.485
35. TVSSDYLHPQY [CCPG1_Y569_F566S] | 0.43
36. SIKGKYVTALY [KCNH2_Y611_D609G] | 0.366
37. YETDYYRKGGK [INSR_Y1190] | 0.41
38. AAAAVYTFLPD [MYORG_Y36_M35V] | 3.68
39. PLRAFYLIARV [HLCS_Y635_D634Y_YF] | 1.02
40. AGTILYHAHLG [ASS1_Y291_D296G] | 0.534
41. YGMSTYITRED [FNDC3B_Y180] | 0.712
42. PPQFSYGLQTQ [SRA1_Y35] | 0.333
43. ANFTEYVATRW [CDKL5_Y171_YF] | 0.834
44. MHDKEYYSVHN [MET_Y1234_Y1230H] | 0.53
45. LPKVSYVKAID [GLRA1_Y307] | 0.402
46. ITKQEYDEAGP [ACTA1_Y364] | 0.553
47. EYRFIYMAVQH [PTPN11_Y515_Q510E] | 1.96
48. RTIPDYTSFNT [EPHB2_Y912] | 0.866
49. PASLSYLSFEG [EXOSC3_Y143] | 0.745
50. RIVTTYIRERE [DNM2_Y463] | 0.477
51. HSFQCYGRNEA [ENTPD3_Y262] | 0.875
52. QQTFTYDSGIH [JUP_Y22_YF] | 1.35
53. AEMKRYAESSS [RAI14_Y869] | 0.45
54. VQNIVYRTASI [CYP39A1_Y102] | 0.335
55. SVVVRYEPPEV [TP53_Y220_P219R] | 0.445
56. QITQVYGFYHE [PPP2CA_Y127_D131H] | 0.66
57. KHASTYREAAT [DEAF1_Y483] | 0.328
58. YIGVTYKNKED [PDGFRA_Y993_E996K] | 0.564
